Measured values drawn from ChEMBL document CHEMBL1131530 for this set.

System: CCRF-CEM
Assay: Growth inhibition was measured for inhibition of growth in CCRF-CEM subline resistant to MTX solely as a result of a 20-fold increase in wild-type DHFR protein and activity.
Type: functional, cell-based
Details: Homo sapiens
property label: pEC50
Friendly reminder that pEC50 comes from taking -log10 of the concentration in mol/L.

Task: What measured pEC50 is associated with Nc1nc(N)c2c3c(oc2n1)CN(Cc1ccc(C(=O)N[C@@H](CCC(=O)O)C(=O)O)cc1)CC3 on CCRF-CEM?
Result: 4.99

----------
Target chain: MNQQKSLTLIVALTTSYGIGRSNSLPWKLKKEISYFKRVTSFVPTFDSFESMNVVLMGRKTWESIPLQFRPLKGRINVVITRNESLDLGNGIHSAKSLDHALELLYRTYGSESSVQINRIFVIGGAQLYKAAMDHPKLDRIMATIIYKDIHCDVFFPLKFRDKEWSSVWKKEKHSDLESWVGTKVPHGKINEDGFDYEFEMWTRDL
property label: pIC50
Friendly reminder that pIC50 comes from taking -log10 of the concentration in mol/L.

Task: Form field: reported pIC50 of Nc1nc(N)c2c3c(oc2n1)CN(Cc1ccc(Cl)cc1Cl)CC3
Result: 4.65

Task: Form field: reported pIC50 of Nc1nc(N)c2c3c(oc2n1)CN(Cc1ccc(Cl)c(Cl)c1)CC3
Result: 4.62

Task: Form field: reported pIC50 of Nc1nc(N)c2c3c(oc2n1)CN(Cc1c(Cl)cccc1Cl)CC3
Result: 4.39
